- TESTED ON: Cytochrome P450 2C9 (Homo sapiens)
- Sequence (P11712 whole entry): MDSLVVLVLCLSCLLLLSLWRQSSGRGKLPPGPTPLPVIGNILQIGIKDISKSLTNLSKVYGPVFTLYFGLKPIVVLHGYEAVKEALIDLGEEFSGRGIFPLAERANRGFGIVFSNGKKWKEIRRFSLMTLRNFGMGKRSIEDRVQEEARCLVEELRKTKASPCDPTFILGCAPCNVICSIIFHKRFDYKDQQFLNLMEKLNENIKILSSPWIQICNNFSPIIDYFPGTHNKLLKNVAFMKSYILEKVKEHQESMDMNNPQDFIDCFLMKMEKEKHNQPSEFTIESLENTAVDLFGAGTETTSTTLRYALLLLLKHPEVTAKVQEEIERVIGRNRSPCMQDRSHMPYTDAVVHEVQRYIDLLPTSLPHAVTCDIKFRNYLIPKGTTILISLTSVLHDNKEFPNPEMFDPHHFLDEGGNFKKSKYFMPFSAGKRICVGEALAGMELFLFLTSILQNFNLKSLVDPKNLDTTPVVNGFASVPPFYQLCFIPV
PROPERTY MEASURED: IC50

Query: May I ask what IC50 has been recorded for C[C@@]1(c2cc(NC(=O)c3ccc(C#N)cn3)ccc2F)Cn2c(C#N)cnc2C(N)=N1 ?
Result: > 10 µM

Query: What do we get for COc1cnc(C(=O)Nc2ccc(F)c([C@]3(C)Cn4nc(C#N)cc4C(N)=N3)c2)cn1 ?
Result: > 30 µM

====

- PROTOCOL TEXT: Clearance in mouse plasma at 0.28 mg/kg, iv
- Format: ADME, organism-based
PROPERTY MEASURED: clearance (mL/min/kg)
Answer with a number only, understood to be in mL/min/kg.

Query: May I ask what clearance has been recorded for COc1cnc(C(=O)Nc2ccc(F)c([C@]3(C)Cn4nc(C#N)cc4C(N)=N3)c2)cn1 ?
Result: 23

====

- PROTOCOL TEXT: Drug level in CD-1 mouse brain at 10 mg/kg, po measured at 2 hr post dose
- Assay type: ADME, organism-based
- COND: read-out: Ct
PROPERTY MEASURED: concentration at 2 h (ng/g)
Answer with a number only, understood to be in ng/g.

Query: May I ask what concentration at 2 h has been recorded for COc1cnc(C(=O)Nc2ccc(F)c([C@]3(C)Cn4nc(C#N)cc4C(N)=N3)c2)cn1 ?
Result: 888

====

Please go through the items and note down their IC50.
- TESTED ON: Beta-secretase 1 (Homo sapiens, UniProt P56817)
- Sequence (P56817 whole entry, the tested form may be a part): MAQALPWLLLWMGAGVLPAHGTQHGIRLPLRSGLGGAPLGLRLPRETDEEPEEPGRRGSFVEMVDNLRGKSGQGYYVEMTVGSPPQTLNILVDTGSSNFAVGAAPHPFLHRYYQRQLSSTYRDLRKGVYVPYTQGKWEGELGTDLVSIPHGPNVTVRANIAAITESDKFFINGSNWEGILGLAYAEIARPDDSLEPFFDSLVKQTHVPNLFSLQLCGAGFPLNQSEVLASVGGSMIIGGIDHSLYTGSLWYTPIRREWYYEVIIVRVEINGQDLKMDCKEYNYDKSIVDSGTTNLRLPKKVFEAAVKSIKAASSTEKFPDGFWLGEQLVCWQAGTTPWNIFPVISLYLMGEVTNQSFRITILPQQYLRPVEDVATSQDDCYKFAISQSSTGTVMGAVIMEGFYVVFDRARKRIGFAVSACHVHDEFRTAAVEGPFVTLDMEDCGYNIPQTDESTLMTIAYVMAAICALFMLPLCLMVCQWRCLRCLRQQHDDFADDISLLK
- PROTOCOL TEXT: Inhibition of BACE1 (1 to 454 residues) (unknown origin) using APP harboring Swedish Lys/Met mutant-derived peptide as substrate by FRET assay
Answer with a number only, understood to be in nM.

Query: May I ask what IC50 has been recorded for C[C@@]1(c2cc(NC(=O)c3ccc(F)cn3)ccc2F)Cn2nc(C#N)cc2C(N)=N1 ?
Result: 2.8

Query: What do we get for COc1cnc(C(=O)Nc2ccc(F)c([C@]3(C)Cn4c(C#N)cnc4C(N)=N3)c2)cn1 ?
Result: 5.5

Query: What do we get for C[C@@]1(c2cc(NC(=O)c3ccc(C#N)cn3)ccc2F)Cn2nc(C#N)cc2C(N)=N1 ?
Result: 1.7

====

- TESTED ON: Voltage-gated inwardly rectifying potassium channel KCNH2 (Homo sapiens)
- Sequence (Q12809 whole entry): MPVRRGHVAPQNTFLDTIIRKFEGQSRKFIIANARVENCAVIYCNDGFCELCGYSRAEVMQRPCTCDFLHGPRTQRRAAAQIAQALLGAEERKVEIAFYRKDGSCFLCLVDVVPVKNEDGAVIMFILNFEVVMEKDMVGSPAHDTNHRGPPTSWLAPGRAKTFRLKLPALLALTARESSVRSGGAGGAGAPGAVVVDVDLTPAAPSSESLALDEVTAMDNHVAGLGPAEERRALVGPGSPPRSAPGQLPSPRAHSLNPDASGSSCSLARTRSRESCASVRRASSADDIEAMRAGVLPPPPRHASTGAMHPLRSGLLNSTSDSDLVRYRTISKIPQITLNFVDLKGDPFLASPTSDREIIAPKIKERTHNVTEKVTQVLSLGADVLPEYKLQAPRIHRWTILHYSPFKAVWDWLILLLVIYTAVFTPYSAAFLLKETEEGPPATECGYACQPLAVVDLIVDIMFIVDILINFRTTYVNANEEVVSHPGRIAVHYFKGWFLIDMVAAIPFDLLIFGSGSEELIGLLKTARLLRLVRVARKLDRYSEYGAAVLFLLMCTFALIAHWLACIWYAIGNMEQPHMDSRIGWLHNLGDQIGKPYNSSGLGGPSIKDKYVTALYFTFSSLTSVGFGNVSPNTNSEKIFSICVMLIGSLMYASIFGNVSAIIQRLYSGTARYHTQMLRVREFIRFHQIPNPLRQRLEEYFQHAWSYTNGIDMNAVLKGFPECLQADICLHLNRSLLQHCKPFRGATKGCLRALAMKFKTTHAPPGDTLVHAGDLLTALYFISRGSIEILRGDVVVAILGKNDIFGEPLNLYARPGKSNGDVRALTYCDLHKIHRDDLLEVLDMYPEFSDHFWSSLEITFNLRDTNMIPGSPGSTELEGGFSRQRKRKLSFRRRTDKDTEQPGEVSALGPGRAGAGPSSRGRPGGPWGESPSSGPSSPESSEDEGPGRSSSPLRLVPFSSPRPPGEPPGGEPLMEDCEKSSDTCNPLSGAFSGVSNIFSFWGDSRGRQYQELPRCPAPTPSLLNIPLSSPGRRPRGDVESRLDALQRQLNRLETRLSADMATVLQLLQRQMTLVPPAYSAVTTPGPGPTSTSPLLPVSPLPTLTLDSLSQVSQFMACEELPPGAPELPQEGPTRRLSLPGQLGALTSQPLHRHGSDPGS
- PROTOCOL TEXT: Inhibition of hERG expressed in HEK293 cells at -80 mV holding potential by automated patch-clamp method
- Assay type: toxicity, cell-based
Please go through the items and note down their IC50.
Answer with a number only, understood to be in µM.

Query: May I ask what IC50 has been recorded for C[C@@]1(c2cc(NC(=O)c3ccc(OC(F)F)cn3)ccc2F)Cn2nc(C#N)cc2C(N)=N1 ?
Result: 6.6

Query: What do we get for C[C@@]1(c2cc(NC(=O)c3ccc(C#N)cn3)ccc2F)Cn2nc(C#N)cc2C(N)=N1 ?
Result: 4.6

Query: What do we get for C[C@@]1(c2cc(NC(=O)c3ccc(F)cn3)ccc2F)Cn2nc(C#N)cc2C(N)=N1 ?
Result: 3.3

====

- Tested on: MDR1
- PROTOCOL TEXT: Efflux ratio of apparent permeability in dog MDCK-MDR1 cells
- Format: ADME, cell-based, Canis lupus familiaris
Please go through the items and note down their efflux ratio.
Output spec: single numeric token, no unit.

Query: Param readout = efflux ratio; param system = MDR1; param query = C[C@@]1(c2cc(NC(=O)c3cnc(C(F)F)cn3)ccc2F)Cn2nc(C#N)cc2C(N)=N1 ; response: value
Result: 11.5

Query: What do we get for C[C@@]1(c2cc(NC(=O)c3ccc(OC(F)F)cn3)ccc2F)Cn2nc(C#N)cc2C(N)=N1 ?
Result: 7

Query: What do we get for C[C@@]1(c2cc(NC(=O)c3cnc(OCF)cn3)ccc2F)Cn2nc(C#N)cc2C(N)=N1 ?
Result: 8.5
